- Test system: HepG2
- Method notes: relative viability EC50 (midpoint between 100% and the lowest measured viability); higher = less toxic
- Condition label: 72 h
Measure name: relative viability EC50 (nM)
Your answer is read as nM, so omit the unit and give the number.

Please review the following examples before continuing.
>  <Compound>
Nc1ccc(F)cc1NC(=O)c1ccc(CNC(=O)/C=C/c2cccnc2)cc1 [chidamide]

>  <Measure name>
relative viability EC50

>  <Test value>
1170

$$$$
>  <Compound>
O=C(CCCCCCCn1cc(-c2cccnc2)nn1)Nc1ccccc1-c1ccccc1

>  <Measure name>
relative viability EC50

>  <Test value>
415

$$$$
>  <Compound>
Cc1ccc2nc(NCCN)c3ncc(C)n3c2c1

>  <Measure name>
relative viability EC50

>  <Test value>
1690

$$$$

Q: Consider the compound CC(C)C[C@H](NC(=O)[C@H](CCc1ccccc1)NC(=O)CN1CCOCC1)C(=O)N[C@@H](Cc1ccccc1)C(=O)N[C@@H](CC(C)C)C(=O)[C@@]1(C)CO1 and give its measured relative viability EC50.
Result: 18

----------
- Tested on: HepG2
- Method notes: cell viability relative to DMSO; higher = less toxic
- Condition label: 72 h; 10000 nM
Each entry below carries its recorded cell viability.
Could you give me the number in %? Just the number is fine.

>  <Molecule>
Cc1ncc([N+](=O)[O-])n1CCO

>  <Measure name>
cell viability

>  <Test value>
105

$$$$
>  <Molecule>
COC(=O)[C@@H]1[C@H]2C[C@H]3c4[nH]c5ccccc5c4CCN3C[C@@H]2CC[C@@H]1O

>  <Measure name>
cell viability

>  <Test value>
87.4

$$$$

Q: Please look up its cell viability: O=S1(=O)CCN(CN2CCS(=O)(=O)NC2)CN1
Result: 97.2

Q: Value lookup for cell viability; key = N[C@@H](Cc1ccc(Cl)cc1)C(=O)O (racemic) [fenclonine-(+/-)]
Result: 100

Q: May I ask what cell viability has been recorded for CS(=O)(=O)c1ccc([C@@H](O)[C@@H](CO)NC(=O)C(Cl)Cl)cc1 ?
Result: 67.3

Q: Looking for the measured cell viability of COC1(C[S@@+]([O-])c2ccccc2)CCN(CCc2c[nH]c3ccc(F)cc23)CC1 , can you help?
Result: 84.1

Q: Could you share which cell viability value was measured for COc1cc(/C=C/C(=O)CC(=O)/C=C/c2ccc(O)c(OC)c2)ccc1O ?
Result: 55.7

Q: Can you share its cell viability? I mean this molecule: O=C1C=Cc2cc(Br)ccc2C1=O
Result: 94.2

----------
Listed below: cell viability values for each entry.
- System: U2OS
- Method notes: cell viability relative to DMSO; higher = less toxic
- Condition label: 72 h; 1000 nM
Kindly provide the numeric value in % only, without the unit symbol.

Examples with their reported cell viability follow.
>  <Compound>
Cn1cnc(-c2cc3nccc(Oc4ccc(NC(=S)NC(=O)Cc5ccccc5)cc4F)c3s2)c1

>  <Target desc>
U2OS

>  <Readout units>
%

>  <cell viability>
96.5

$$$$
>  <Compound>
Nc1ccn([C@@H]2O[C@@](CO)(CCl)[C@@H](O)[C@H]2F)c(=O)n1

>  <Target desc>
U2OS

>  <Readout units>
%

>  <cell viability>
96.8

$$$$
>  <Compound>
C[S+](C)CC[C@H](N)C(=O)O

>  <Target desc>
U2OS

>  <Readout units>
%

>  <cell viability>
94.7

$$$$

Let us move to another entry and its cell viability.
Q: Consider the compound shown here: O=C(O)c1ccc(/C=C2\SC(=S)N(c3cccc(C(F)(F)F)c3)C2=O)cc1 What is its recorded cell viability?
Result: 104

----------
- System: Calu-3
- Method notes: cell viability relative to DMSO; higher = less toxic
- Condition label: 72 h; 1000 nM
Entries and their cell viability values follow.
# output: bare number, implied unit %

Below are worked cases with known answers.
>  <Compound>
COc1oc(=O)c2cc(N)ccc2c1Cl

>  <cell viability (%)>
94.9

$$$$
>  <Compound>
NC(=O)N1c2ccccc2CC(O)c2ccccc21 (stereo unspecified) [licarbazepine]

>  <cell viability (%)>
105

$$$$
>  <Compound>
Cc1cnc(-c2ccccc2C(C)C)nc1NCc1ccc(-n2ccnn2)cc1

>  <cell viability (%)>
97.3

$$$$

Q: What does the record list as cell viability for O=C(Nc1ccccc1)c1ccccc1O [salicylanilide] ?
Result: 90.9

Q: State the recorded cell viability for this entry: COC(=O)[C@H](CC(C)C)NC(=O)c1ccc(NC[C@@H](N)CS)cc1-c1cccc2ccccc12
Result: 100

Q: Fill in the blank: the reported cell viability of Nc1nc(O)c2nc(Br)n([C@@H]3O[C@@H]4COP(=O)(O)O[C@H]4[C@H]3O)c2n1 is ____.
Result: 90.5

Q: Look at this compound and give its reported cell viability. CC1(C)CCC(C)(C)c2cc(C3(c4ccc5cc(C(=O)O)ccc5c4)SCCS3)ccc21
Result: 113

Q: Which cell viability reading was recorded for the compound COC(=O)c1csc(C(=O)c2c[nH]c3ccccc23)n1 ?
Result: 105

----------
- Test system: U2OS
- Method notes: cell viability relative to DMSO; higher = less toxic
- Condition label: 72 h; 100 nM
Measure name: cell viability (%)
Give a bare numeral; the unit % is implied.

These solved cases illustrate the format of a correct answer.
>  <Molecule>
CN(C)CCCNC(=O)c1ccc(-c2cc(O)c3ncccc3c2)cc1

>  <cell viability (%)>
107

$$$$
>  <Molecule>
CC(C)(C)c1cc(C(=O)/C(C#N)=N/Nc2cccc(Cl)c2)no1

>  <cell viability (%)>
98.4

$$$$
>  <Molecule>
Clc1ccc(C(Cn2ccnc2)OCc2ccc(Sc3ccccc3)cc2)c(Cl)c1 (centres undefined)

>  <cell viability (%)>
100

$$$$
>  <Molecule>
C=CC(=O)Nc1ccc2ncnc(Nc3cccc(Br)c3)c2c1

>  <cell viability (%)>
93

$$$$

Q: # cell viability lookup, item CN(C)Cc1cccc(N/C(=C2\C(=O)Nc3cc(C(N)=O)ccc32)c2ccccc2)c1
Result: 99

Q: Which cell viability value is on record for CCCCCCCCCCCCC/C=C/[C@@H](O)[C@@H](N)CO[P@](=O)(O)OCC[N+](C)(C)C ?
Result: 101

Q: Could you tell me which cell viability is on file for Cc1ccc(S(=O)(=O)NC2c3ccccc3Oc3ccccc32)cc1 ?
Result: 102

Q: # get_value(readout='cell viability', item= OC1(c2ccc(Cl)c(C(F)(F)F)c2)CCN(CCCC(c2ccc(F)cc2)c2ccc(F)cc2)CC1 )
Result: 104

Q: I'd like to know its cell viability. The molecule in question is CCOC(=O)[C@H](CCc1ccccc1)N[C@@H](C)C(=O)N1Cc2ccccc2C[C@H]1C(=O)O
Result: 95.1

----------
Below, each entry is listed alongside its reported cell viability.
- Test system: Caco-2
- Method notes: cell viability relative to DMSO; higher = less toxic
- Condition label: 72 h; 100 nM
Where a name gives a salt, the structure may show the parent alone.
// units = %; emit number, no label

Worked set:
>  <Compound>
COC(=O)C(c1ccccc1)C1CCCCN1 (stereo not drawn) [METHYLPHENIDATE HYDROCHLORIDE]

>  <Readout units>
%

>  <cell viability>
91.2

$$$$
>  <Compound>
CC(=O)N[C@@H](Cc1ccc(O)cc1)C(=O)O

>  <Readout units>
%

>  <cell viability>
91

$$$$

Q: Item CS(=O)(=O)c1ccc([C@@H](O)[C@@H](CO)NC(=O)C(Cl)Cl)cc1 has what recorded cell viability?
Result: 91.7

----------
- Test system: HepG2
- Method notes: cell viability relative to DMSO; higher = less toxic
- Condition label: 72 h; 10 nM
Reported cell viability values for a set of molecules
Lab book: enter the figure in %, no units written.

Use the examples below as a reference point.
>  <Molecule>
O=C(O)c1ccc(/C=C2\SC(=S)N(c3cccc(C(F)(F)F)c3)C2=O)cc1

>  <Target desc>
HepG2

>  <Test value>
104

$$$$
>  <Molecule>
COc1cc2nccc(Oc3ccc(NC(=O)Nc4ccc(F)cc4F)c(F)c3)c2cc1OC

>  <Target desc>
HepG2

>  <Test value>
116

$$$$
>  <Molecule>
CN1CCOC(c2ccccc2)c2ccccc2C1 (stereo not given)

>  <Target desc>
HepG2

>  <Test value>
104

$$$$
>  <Molecule>
NC(=O)NC(=O)Cc1ccccc1 [phenacemide]

>  <Target desc>
HepG2

>  <Test value>
103

$$$$

Q: Quick check: cell viability on HepG2, item NS(=O)(=O)c1cc(C(=O)O)c(NCc2ccco2)cc1Cl [furosemide] ?
Result: 87.5

Q: Kindly state the measured cell viability obtained for Clc1ccc(CSC(Cn2ccnc2)c2ccc(Cl)cc2Cl)cc1 (stereo not given) with HepG2.
Result: 87.4

Q: Find cell viability (HepG2) for the entry COc1oc(=O)c2cc(N)ccc2c1Cl
Result: 113

Q: Report cell viability for CCOC(=O)[C@H](CCc1ccccc1)N[C@@H](C)C(=O)N1Cc2ccccc2C[C@H]1C(=O)O tested on HepG2.
Result: 98.9

Q: Given the entry COc1c2occc2c(OC)c2c(=O)cc(C)oc12 , what cell viability was observed with HepG2?
Result: 99.2
